# TESTED_ON: UniProtKB Q15746
# Sequence (Q15746 whole entry, looked up): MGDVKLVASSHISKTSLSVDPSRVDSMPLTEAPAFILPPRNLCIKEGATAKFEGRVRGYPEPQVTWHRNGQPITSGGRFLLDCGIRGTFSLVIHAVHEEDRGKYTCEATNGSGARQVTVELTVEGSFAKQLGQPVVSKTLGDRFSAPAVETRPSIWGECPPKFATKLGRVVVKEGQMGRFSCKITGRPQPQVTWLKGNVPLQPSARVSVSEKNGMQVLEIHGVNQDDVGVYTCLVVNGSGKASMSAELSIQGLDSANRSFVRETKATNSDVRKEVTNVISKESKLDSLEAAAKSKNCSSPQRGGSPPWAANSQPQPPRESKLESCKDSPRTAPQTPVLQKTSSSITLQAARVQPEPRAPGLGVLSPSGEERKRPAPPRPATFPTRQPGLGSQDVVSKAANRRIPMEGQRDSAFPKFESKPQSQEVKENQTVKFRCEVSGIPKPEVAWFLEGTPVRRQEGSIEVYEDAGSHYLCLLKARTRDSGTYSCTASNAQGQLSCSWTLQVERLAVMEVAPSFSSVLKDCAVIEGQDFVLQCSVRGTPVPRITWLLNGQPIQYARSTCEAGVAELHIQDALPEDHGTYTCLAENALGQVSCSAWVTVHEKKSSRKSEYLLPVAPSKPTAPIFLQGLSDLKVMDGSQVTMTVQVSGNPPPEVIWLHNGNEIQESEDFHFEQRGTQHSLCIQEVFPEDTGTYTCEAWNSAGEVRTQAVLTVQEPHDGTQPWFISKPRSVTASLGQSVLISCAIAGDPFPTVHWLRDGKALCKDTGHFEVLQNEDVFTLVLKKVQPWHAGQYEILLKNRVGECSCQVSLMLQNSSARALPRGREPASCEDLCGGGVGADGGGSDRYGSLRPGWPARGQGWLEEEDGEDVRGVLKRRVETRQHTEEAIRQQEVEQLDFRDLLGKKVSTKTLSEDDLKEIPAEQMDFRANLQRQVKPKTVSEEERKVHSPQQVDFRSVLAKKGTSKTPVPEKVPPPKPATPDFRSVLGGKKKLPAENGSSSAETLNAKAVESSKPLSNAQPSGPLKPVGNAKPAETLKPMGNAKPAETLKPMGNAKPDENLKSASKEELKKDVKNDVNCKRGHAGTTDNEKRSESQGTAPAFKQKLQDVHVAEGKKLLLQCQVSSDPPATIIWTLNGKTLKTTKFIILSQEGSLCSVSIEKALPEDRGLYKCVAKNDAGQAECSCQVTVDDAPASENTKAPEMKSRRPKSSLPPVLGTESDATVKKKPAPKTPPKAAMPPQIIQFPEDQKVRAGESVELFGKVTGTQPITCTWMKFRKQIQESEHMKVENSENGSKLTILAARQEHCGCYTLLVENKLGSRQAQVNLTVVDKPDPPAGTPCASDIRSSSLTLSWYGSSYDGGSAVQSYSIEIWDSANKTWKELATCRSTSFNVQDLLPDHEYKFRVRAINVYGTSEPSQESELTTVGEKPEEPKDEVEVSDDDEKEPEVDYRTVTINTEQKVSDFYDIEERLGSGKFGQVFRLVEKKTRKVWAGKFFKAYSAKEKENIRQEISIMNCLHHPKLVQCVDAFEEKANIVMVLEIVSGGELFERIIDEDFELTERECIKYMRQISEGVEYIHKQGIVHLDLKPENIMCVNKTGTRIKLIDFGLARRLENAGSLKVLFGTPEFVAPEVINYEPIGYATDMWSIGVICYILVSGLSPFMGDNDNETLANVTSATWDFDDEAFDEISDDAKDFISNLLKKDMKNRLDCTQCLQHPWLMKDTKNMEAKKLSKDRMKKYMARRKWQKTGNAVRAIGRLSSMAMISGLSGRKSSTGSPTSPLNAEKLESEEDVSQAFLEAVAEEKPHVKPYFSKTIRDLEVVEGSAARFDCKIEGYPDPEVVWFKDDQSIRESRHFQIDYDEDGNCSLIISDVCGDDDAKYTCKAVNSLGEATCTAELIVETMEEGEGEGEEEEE
# PROCEDURE_SUMMARY: KINOMEscan competition binding
# STATED_CONDITIONS: compound 10.0 µM
For each record, write down the corresponding kinase still bound, per cent of control.
Give bare numbers, in %.

Known kinase still bound, per cent of control results, listed for orientation:
COMPOUND | kinase still bound, per cent of control [%]
CCN1C(=O)CC(c2ccccc2)N(C2CCCC2)c2nc(Nc3ccc(C(=O)NC4CCN(C)CC4)cc3OC)ncc21 (centres undefined) | 26
CN1C(=O)c2ccccc2N(C)c2nc(NS(=O)(=O)c3ccc(N)cc3)ncc21 | 82
CSC1=NC(=O)/C(=C/c2c[nH]c(=O)c(-c3ccc(NS(C)(=O)=O)cc3)c2)S1 | 34
CN1C(=O)c2ccccc2N(C)c2nc(Nc3ccc(N4CCC(O)CC4)cc3)ncc21 | 63
N=C1NC(=O)/C(=C/c2ccc(-c3ccc(C(=O)Nc4ccc(N5CCNCC5)cc4)cc3O)o2)S1 | 32
CN1C(=O)[C@H]2CCC[C@H]2N(C2CCCC2)c2nc(Nc3ccc(C(N)=O)cc3)ncc21 | 23

Quick batch: kinase still bound, per cent of control for everything below.
1. COc1cc(C(=O)NC2CCN(C)CC2)ccc1Nc1ncc2c(n1)N(C1CCC(O)CC1)CCC(=O)N2C (centres undefined)
2. CCN(CC)C1CCN(c2ccc(Nc3ncc4c(n3)N3CCCC3C=CN4C)c(OC(C)C)c2)CC1 (centres undefined)
3. CC(C)Oc1cc(C(=O)N2CCC(N3CCN(C)CC3)CC2)ccc1Nc1ncc2c(n1)N(C1CCCC1)[C@@H]1CCC[C@@H]1C(=O)N2C

3
25
18

---

Task for the reader: assign each of the following compounds its reported kinase still bound, per cent of control.
# Test system: RET (human), P07949 [M918T]
# Sequence (P07949 whole entry M918T, looked up): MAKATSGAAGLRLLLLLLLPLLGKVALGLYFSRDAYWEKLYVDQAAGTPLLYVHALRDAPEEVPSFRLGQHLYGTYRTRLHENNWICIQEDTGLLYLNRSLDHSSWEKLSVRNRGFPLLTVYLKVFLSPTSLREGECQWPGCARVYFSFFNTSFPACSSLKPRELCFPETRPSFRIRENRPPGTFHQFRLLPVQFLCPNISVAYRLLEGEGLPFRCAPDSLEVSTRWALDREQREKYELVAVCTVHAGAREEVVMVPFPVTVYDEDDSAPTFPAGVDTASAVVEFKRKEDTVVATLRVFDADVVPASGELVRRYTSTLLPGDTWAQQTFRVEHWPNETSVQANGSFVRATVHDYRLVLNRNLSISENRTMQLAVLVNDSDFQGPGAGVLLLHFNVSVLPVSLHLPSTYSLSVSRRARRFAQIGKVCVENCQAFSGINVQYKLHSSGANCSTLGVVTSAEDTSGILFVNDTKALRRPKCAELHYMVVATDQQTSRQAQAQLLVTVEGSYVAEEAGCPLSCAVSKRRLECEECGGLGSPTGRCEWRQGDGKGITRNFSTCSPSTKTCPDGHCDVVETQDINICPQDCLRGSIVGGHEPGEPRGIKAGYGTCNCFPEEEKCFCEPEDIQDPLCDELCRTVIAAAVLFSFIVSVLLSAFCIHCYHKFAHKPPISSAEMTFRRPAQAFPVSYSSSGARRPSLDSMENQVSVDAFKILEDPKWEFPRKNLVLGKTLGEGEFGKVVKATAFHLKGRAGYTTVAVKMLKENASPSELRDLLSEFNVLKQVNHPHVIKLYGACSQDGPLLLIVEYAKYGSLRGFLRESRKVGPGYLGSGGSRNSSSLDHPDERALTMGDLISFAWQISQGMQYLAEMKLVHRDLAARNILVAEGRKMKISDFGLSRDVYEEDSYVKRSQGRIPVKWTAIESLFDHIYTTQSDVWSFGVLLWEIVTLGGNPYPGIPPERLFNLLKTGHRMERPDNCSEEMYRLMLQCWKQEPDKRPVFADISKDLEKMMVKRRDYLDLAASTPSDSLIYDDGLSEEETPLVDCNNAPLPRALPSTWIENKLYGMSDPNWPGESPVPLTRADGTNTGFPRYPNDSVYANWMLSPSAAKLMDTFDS
# PROCEDURE_SUMMARY: KINOMEscan competition binding
# STATED_CONDITIONS: compound 10.0 µM
Give bare numbers, in %.

Some compounds with known kinase still bound, per cent of control results, for comparison:
COMPOUND_SMILES | TESTED_ON | OBSERVED_MEASUREMENT
COc1cc(N2CCC(O)CC2)ccc1Nc1ncc2c(n1)N1CCc3cccc(c31)C(=O)N2C | RET (human), P07949 [M918T] | 100
COc1cc(N2CCN(C)CC2)ccc1Nc1ncc2c(n1)N(C)c1sccc1C(=O)N2C | RET (human), P07949 [M918T] | 96
CCN1CCN(Cc2cc(NC(=O)c3cccc4cc(-c5ccc(/C=C6\SC(=O)NC6=O)o5)ccc34)cc(C(F)(F)F)c2)CC1 | RET (human), P07949 [M918T] | 3.9

For the 6 compounds below, give their kinase still bound, per cent of control values.
1. COc1cc(C(=O)NC2CCN(C)CC2)ccc1Nc1ncc2c(n1)N(C1CCCC1)CCC(=O)N2C(C)C
2. CN1CCN(c2ccc(C(=O)Nc3ncc4c(n3)N(C)c3ccccc3C(=O)N4C)cc2)CC1
3. COc1cc(N2CCN(C)CC2)ccc1Nc1ncc2c(n1)Nc1ccccc1NC2=O
4. N=C1NC(=O)/C(=C/c2ccc(-c3cncc4ccccc34)o2)S1
5. CN1C(=O)c2ccccc2N(C)c2nc(Nc3ccc(N4CCC(O)CC4)cc3)ncc21
6. CS(=O)(=O)Nc1ccc(-c2ncc(/C=C3\SC(=N)NC3=O)s2)cc1

0
98
72
21
4.2
3.4
